- Assayed system: Cytochrome P450 2C9 (Homo sapiens)
- Measurement protocol: Cytochrome P450 family 2 subfamily C member 9 (CYP2C9) small molecule antagonists: luciferase biochemical (cell-free) qHTS assay (AID 1645842); also: nearly all actives have a fitted effect of over 55% in size; also: potency is read from the fitted curve at half-maximal effect
- Stated conditions: P450-Glo CYP2C9 enzyme assay, luciferin luminescence; series mostly up to 57.4 µM
Records with an inconclusive call do not appear. Calls of active or inactive are those of the source. Calls follow the shape of the dose curve; as a rule, active = well fitted inhibition curve with a large enough effect in the repeat runs; inconclusive = weak or mixed curves; inactive = no such curve, though single readings can be large or run the other way.
Experimental endpoint: Potency

COc1cccc(C(=O)NC(c2ccc(Cl)cc2)c2cc(Cl)c3cccnc3c2O)c1 (stereo unspecified) ... 23.9 µM (active)
COc1ccc(C(C#N)C(C)C)cc1OC (stereo unspecified) ... inactive
Cc1ccc(-n2c(SCc3ccccc3C)nc3[nH]ncc3c2=O)cc1C ... 21.3 µM (active)
CCn1cc(/C=C(\NC(=O)c2ccc(C)cc2)C(=O)NCCCn2ccnc2)c2ccccc21 ... 1.34 µM (active)
CCC(Sc1nc2ccccc2c2nc(CCn3cncc3C)nn12)C(=O)Nc1cccc(OC)c1 (stereo unspecified) ... 1.9 µM (active)
COc1ccc(CN(C2CCCCC2)[S+](C)(=O)[O-])cc1OC ... 6.74 µM (active)

input: For the molecule O=C(Nc1cccc(Cl)c1)c1c(NC(=O)C(F)(F)F)sc2c1CCCC2 , what Potency is on record?
output: 0.354 µM (active)

input: Given the entry CCN(CC)C(=O)[C@]1(c2ccccc2)C[C@H]1CN , report its measured Potency.
output: inactive

input: Would you kindly share the measured Potency for CCOc1ccc(-c2cc(NC(=O)Nc3ccccc3Cl)c(C(=O)OC)s2)cc1 ?
output: 5.35 µM (active)

* * *

- Assayed system: Rap guanine nucleotide exchange factor 4 (Homo sapiens) (UniProt Q8WZA2)
- Sequence (Q8WZA2 whole entry, looked up): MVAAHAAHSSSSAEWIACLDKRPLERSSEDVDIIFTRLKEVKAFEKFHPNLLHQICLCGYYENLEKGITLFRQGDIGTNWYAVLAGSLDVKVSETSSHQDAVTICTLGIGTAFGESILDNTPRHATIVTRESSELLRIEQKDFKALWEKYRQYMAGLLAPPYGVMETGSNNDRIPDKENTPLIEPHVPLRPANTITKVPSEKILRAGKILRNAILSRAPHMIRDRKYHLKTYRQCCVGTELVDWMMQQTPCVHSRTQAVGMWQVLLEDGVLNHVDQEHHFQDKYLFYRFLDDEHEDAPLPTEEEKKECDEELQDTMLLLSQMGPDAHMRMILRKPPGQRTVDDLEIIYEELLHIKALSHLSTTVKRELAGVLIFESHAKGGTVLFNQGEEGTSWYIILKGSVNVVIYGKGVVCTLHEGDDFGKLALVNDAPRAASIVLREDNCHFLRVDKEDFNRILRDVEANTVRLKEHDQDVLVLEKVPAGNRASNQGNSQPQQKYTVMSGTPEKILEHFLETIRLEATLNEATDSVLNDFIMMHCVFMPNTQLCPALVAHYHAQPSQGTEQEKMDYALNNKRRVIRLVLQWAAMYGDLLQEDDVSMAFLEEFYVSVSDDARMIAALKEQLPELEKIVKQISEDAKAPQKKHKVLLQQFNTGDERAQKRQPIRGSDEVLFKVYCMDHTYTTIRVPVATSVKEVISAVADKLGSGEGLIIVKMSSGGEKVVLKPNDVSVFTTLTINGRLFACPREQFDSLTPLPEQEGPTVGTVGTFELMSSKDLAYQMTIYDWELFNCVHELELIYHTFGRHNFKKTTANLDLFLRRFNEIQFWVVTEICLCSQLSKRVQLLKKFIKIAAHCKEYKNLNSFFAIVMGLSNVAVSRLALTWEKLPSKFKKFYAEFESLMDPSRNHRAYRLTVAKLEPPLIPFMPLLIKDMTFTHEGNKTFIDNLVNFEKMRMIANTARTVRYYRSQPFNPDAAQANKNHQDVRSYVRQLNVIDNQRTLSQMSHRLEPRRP
- Measurement protocol: Confirmatory qHTS for agonist of cAMP-regulated guanine nucleotide exchange factor 4 (EPAC2) (AID 1645884);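 also: nucleotide exchange releases bodipy-GDP from Rap1 and this lowers its fluorescence; nearly all actives have a fitted effect of over 65% in size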
- Stated conditions: EPAC2 GEF activity, Rap1B-BODIPY-GDP fluorescence; series mostly up to 154 µM
Inconclusive results are not listed. Calls of active or inactive are those of the source. Calls follow the shape of the dose curve; as a rule, active = well fitted activation curve with a large enough effect; inconclusive = small, poorly fitted or top-dose-only effect; inactive = no such curve, though single readings can be large or run the other way.
Experimental endpoint: activation

Cc1c(C(=O)N2c3ccccc3CC2C)oc2ccccc12 (stereo not given) ... inactive
CCCCCCc1ccc(N2C[C@H](Cc3ccccc3)[C@@H](CC(=O)Nc3ccccc3)C2=O)cc1 ... inactive
CC(C)(C)n1cnc2cc(NCc3ccccc3Cl)ccc21 ... inactive

* * *

- Measurement protocol: qHTS Assay for Lipid Storage Modulators (AID 1519)
- Stated conditions: Drosophila S3 cells, BODIPY lipid droplet/cell ratio, laser cytometry; measured here: lipid channel max response; cells loaded with oleic acid
Results filed as inconclusive are left out.
Flag rule - max response less than 20% flags Yes; the remaining entries get No.

input: Does the reported max response of CCCCCC(=O)Cc1cc(O)cc(O)c1C(=O)Oc1cc(CC(=O)CCCCC)c(C(=O)O)c(OC)c1 stay below 20%?
output: Yes

input: For this compound, is max response lower than 20%? CC(=O)OC1CC[C@@]2(C)C(CC[C@@]3(C)C2CC=C2C4CC(C)(C)CC[C@]4(C(=O)O)CC[C@@]23C)C1(C)C (stereo not given in full)
output: No

input: A record lists COc1ccc2c(C)cc(=O)oc2c1 . Is its max response below 20%?
output: No

input: Problem: For the compound CC1(C)Oc2ccc3ccc(=O)oc3c2CC1O (stereo not given) , is max response under 20%?
output: Yes
